target: Cytochrome P450 2D6 (Homo sapiens) (UniProt P10635); assay: Cytochrome panel assay with activity outcomes; details: recombinant CYP, pro-luciferin dealkylation, luminescence, p450-cyp2d6; series mostly up to 57.1 µM; as to activity, negative = inhibition: % is scaled to controls: 0 for no effect and ±100 for the full control effect
Sequence (P10635 whole entry, looked up): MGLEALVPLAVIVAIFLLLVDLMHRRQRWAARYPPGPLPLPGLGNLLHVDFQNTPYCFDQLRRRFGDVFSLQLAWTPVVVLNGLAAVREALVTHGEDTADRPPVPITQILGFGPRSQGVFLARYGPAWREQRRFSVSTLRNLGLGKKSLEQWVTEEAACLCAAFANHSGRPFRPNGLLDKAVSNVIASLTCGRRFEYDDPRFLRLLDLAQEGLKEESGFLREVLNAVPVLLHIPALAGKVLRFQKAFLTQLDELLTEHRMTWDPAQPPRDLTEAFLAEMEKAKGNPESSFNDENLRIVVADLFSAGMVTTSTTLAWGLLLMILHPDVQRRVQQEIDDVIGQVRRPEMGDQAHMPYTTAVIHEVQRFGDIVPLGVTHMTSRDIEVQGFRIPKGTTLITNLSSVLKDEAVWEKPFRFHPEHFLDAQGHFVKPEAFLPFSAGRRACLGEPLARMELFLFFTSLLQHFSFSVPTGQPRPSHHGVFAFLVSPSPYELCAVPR
About 2,600 (16%) of roughly 16,000 compounds were called active. Not shown: some 20% with an inconclusive outcome. Shown is part of a subset that was picked to be rich in actives.
measurement kind: activity, negative = inhibition

These recorded examples may help you get a feel for the data.
[[record]]
compound = "c1ccc(CCN2CCCCCC2)nc1"
measurement_kind = "activity, negative = inhibition"
result = "-18.4% [at 11.4 µM] (inactive)"

[[record]]
compound = "CC(=O)O[C@H]1CC[C@@]2(C)[C@@H](CC[C@H]3[C@H]2CC(=O)[C@@]2(C)[C@@H]3C[C@H]3CC(C)=CC(=O)[C@H]32)C1"
measurement_kind = "activity, negative = inhibition"
result = "2.72% [at 11.4 µM] (inactive)"

[[record]]
compound = "C[N+]1(C)C2CC[C@H]1CC(OC(=O)[C@@H](CO)c1ccccc1)C2 (stereo not given in full)"
measurement_kind = "activity, negative = inhibition"
result = "12% [at 11.4 µM] (inactive)"

[[record]]
compound = "O=[As](O)(O)c1ccc(N=Nc2ccc(O)cc2)cc1"
measurement_kind = "activity, negative = inhibition"
result = "2.25% [at 11.4 µM] (inactive)"

[[record]]
compound = "CC(=O)OC1=CC2=CC[C@H]3[C@H]4CCC(=O)[C@@]4(C)CC(=O)[C@]3(S)[C@]2(C)CC1"
measurement_kind = "activity, negative = inhibition"
result = "0.557% [at 11.4 µM] (inactive)"

[[record]]
compound = "Cc1ccc(S(=O)ON2CCC(C(=O)O)(c3ccccc3)CC2)cc1 (stereo not given)"
measurement_kind = "activity, negative = inhibition"
result = "20.9% [at 11.4 µM] (inactive)"

[[record]]
compound = "Cc1ccc(C2(c3ccc(C)c(O)c3C)CCN(C)CC2)c(C)c1O"
measurement_kind = "activity, negative = inhibition"
result = "-18.9% [at 11.4 µM] (inactive)"

[[record]]
compound = "Cc1cc(Cc2cc(C)c(N)cc2N)c(N)cc1N"
measurement_kind = "activity, negative = inhibition"
result = "-18.6% [at 11.4 µM] (inactive)"


IN: Please report the recorded activity, negative = inhibition for "[N-]=[N+]=NCC(=O)c1c[nH]c(=O)[nH]c1=O" .
OUT: 8.7% [at 11.4 µM] (inactive)

IN: Please report the recorded activity, negative = inhibition for "C[C@H](Br)C(=O)c1ccc2cc(Br)c3ccccc3c2c1" .
OUT: 8.29% [at 11.4 µM] (inactive)

====

target: Cytochrome P450 2D6 (Homo sapiens); assay: Cytochrome panel assay with activity outcomes; conditions: recombinant CYP, pro-luciferin dealkylation, luminescence, p450-cyp2d6; series mostly up to 57.1 µM
In all, about 16,000 compounds went through this assay and about 2,600 (16%) were called active. About 20% were inconclusive and are not listed. Calls come from the whole dose curve; as a rule, active = well fitted curve in the direction sought with a large enough effect; inconclusive = small, poorly fitted or top-dose-only effect, or effect the other way; inactive = no such curve, though single readings can be large or run the other way. Only a selection was taken, and actives are over-represented in it overall.
Output constraint: value belongs to 1 = active, 0 = inactive

Some solved cases for reference:
[[record]]
molecule = "CC(C)Oc1cc(-n2c(=S)[nH]c3ccccc3c2=O)c(Cl)cc1Cl"
group = 0

[[record]]
molecule = "COc1ccc(OC)c([C@H](O)[C@H](C)N)c1"
group = 0


IN: Please state the recorded outcome for this molecule: "N#Cc1ccc(CN2CC[C@@]3(CCCNC3)C2)cc1"
OUT: 0

IN: Please state the recorded outcome for this molecule: "O=[N+]([O-])c1ccc2nc(N3CCNCC3)ccc2c1"
OUT: 0

IN: Please state the recorded outcome for this molecule: CS(=O)(=O)N1CCCC(C(=O)N2CCC3(CC2)OCCO3)C1 (stereo not given)
OUT: 0

IN: Please state the recorded outcome for this molecule: "C/C(O)=C(/C#N)C(=O)Nc1cc(Br)ccc1Br"
OUT: 0

IN: Please state the recorded outcome for this molecule: "Cc1nc(N)sc1CCN"
OUT: 0

IN: Please state the recorded outcome for this molecule: "CCNC(C)(C)[C@@H](SS)c1ccc(Br)cc1"
OUT: 1

IN: Please state the recorded outcome for this molecule: "CN1C[C@H](CO)C=C2c3cccc4[nH]cc(c34)C[C@@H]21"
OUT: 1

IN: Please state the recorded outcome for this molecule: "COc1c2c(cc3c1OCO3)CCN(C)C2"
OUT: 1

IN: Please state the recorded outcome for this molecule: "N[C@H](C(=O)O)c1cc(=O)[nH]o1"
OUT: 0

IN: Please state the recorded outcome for this molecule: Cc1ccc(S(=O)(=O)NCC2CCC(C(=O)N3CCC4(CC3)OCCO4)CC2)cc1 (stereo not given)
OUT: 0

IN: Please state the recorded outcome for this molecule: "Cc1o[nH]c(=O)c1C[C@@H](N)C(=O)O"
OUT: 0

IN: Please state the recorded outcome for this molecule: "O=C(c1ccccc1F)c1cn(Cc2ccccc2)c2ccccc12"
OUT: 0

IN: Please state the recorded outcome for this molecule: "O=C(O)CNC(=O)[C@@H](CS)Cc1ccccc1"
OUT: 0
